# TESTED_ON: T1, Human MuSK (R&D Systems, cat. 10189-MK, histidine tag) (human, UniProt O15146 24-495)
# T1 construct: Bought protein; also called human monomeric MuSK-6xhis; not shown: histidine tag (6xhis)
# T1 sequence: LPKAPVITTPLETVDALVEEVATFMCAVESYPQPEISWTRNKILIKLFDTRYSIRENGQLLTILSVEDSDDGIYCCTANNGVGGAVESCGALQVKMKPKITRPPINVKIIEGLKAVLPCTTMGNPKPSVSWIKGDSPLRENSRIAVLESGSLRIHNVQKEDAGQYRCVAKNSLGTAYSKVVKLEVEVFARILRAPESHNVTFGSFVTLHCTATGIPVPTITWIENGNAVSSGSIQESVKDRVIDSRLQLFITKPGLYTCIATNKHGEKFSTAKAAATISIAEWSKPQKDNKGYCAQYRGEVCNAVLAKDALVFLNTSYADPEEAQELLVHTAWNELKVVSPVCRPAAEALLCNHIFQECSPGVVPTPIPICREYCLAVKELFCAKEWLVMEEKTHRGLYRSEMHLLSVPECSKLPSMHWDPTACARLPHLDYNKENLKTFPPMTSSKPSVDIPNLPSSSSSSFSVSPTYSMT
# ASSAY_COMMENT: SPR (Biacore), MuSK-coated chip presaturated with 500 nM 4D3 (competitor)

[
  {
    "BINDER": "3F6c (antibody, human IgG1, kappa, L234A L235A, V domains shown) VH: EVQLVESGGGLVKPGGSLRLSCAASGFTFSSYTMDWVRQAPGKGLEWVSSIGSNGDYIYYADSVRGRFTISRDNAKNSLYLQMNSLRAEDTAVYYCARGQLAVAGTHFDYWGQGTLVTVSS VL: DIQMTQSPSSLSASVGDRVTITCRASQKVNKYVNWYQQKPGKAPKLLIYAASTLQSGVPSRFSGSGSGTDFTLTISSLQPEDFATYYCQQSYSPLSTFGQGTKLEIKR",
    "normalized extra amplitude (%)": 0.6
  },
  {
    "BINDER": "3B5 (antibody, V domains shown, also called 3B5wt) VH: QVQLVQSGAVVAKPGASVQVSCKTSGYTFTGQYLHWVRQAPGQGLEWIGWINPSSGVTKFAEKFEGRATMTRDTSITTAYIDLRSLRSDDTATYYCATLSLGVYYVGMVAWGQGTLVTVSS VL: ELTQPPSVSVSPGQTATITCSGDGLAQQHVYWFQQRPGQAPLLIIYKDIERPSGIPERFSGSSSGTTAMLTISGVQAEDEADYYCQSGDRTATSVLFGGGTKMTVLG",
    "normalized extra amplitude (%)": 88.1
  },
  {
    "BINDER": "4D3 (antibody, human IgG1, kappa, L234A L235A, V domains shown) VH: EVQLVESGGGLVKPGGSLRLSCAASGFTFSSYTMTWVRQAPGKGLEWVSSISSGGHYIYYTDSLKGRFTISRDNAKNSLYLQMNSLRAEDTAVYYCARERLLRLGVGFDFWGQGTLVTVSS VL: DIQMTQSPSSLSASVGDRVTITCRASQSISGYLNWYQQKPGKAPKLLIYAASTLQSGVPSRFSGSGSGTDFTLTISSLQPEDFATYYCQQSYSALYTFGQGTKLEIKR",
    "normalized extra amplitude (%)": 0
  },
  {
    "BINDER": "3D9b (antibody, human IgG1, kappa, L234A L235A, V domains shown) VH: EVQLVESGGGLVKPGGSLRLSCAASGFTFSTYTMHWVRQAPGKGLEWVSSISSRSAYKYYADSVKGRFTISRDNAKNSLYLQMNSLRAEDTAVYYCARDFFQLGPPRFDSWGQGTLVTVSS VL: DIQMTQSPSSLSASVGDRVTITCRASQRISSFLNWYQQKPGKAPKLLIYGASNLQSGVPSRFSGSGSGTDFTLTISSLQPEDFATYYCQQSYSPSYTFGQGTKLEIKR",
    "normalized extra amplitude (%)": 9.6
  }
]
